tested on: HIV-1 NL4-3 virus; assay: Anti-HIV-1 activity, multicycle assay with HIV-1 NL4-3 in TZM-bl cells; format: cell-based; settings: Table 2; TZM-bl cells
measurement type: SI (selectivity index, ratio of CC50/EC50)

# compound, result
measured = [
    ("COc1ccc(N(C)C(=O)[C@H](Cc2cc(F)cc(F)c2)NC(=O)c2cccc(-c3cn(CCc4ccsc4)nn3)c2)cc1 [II-10h]", ">4.44"),
]

(Q) SI (selectivity index, ratio of CC50/EC50) lookup needed for COc1ccc(N(C)C(=O)[C@H](Cc2ccccc2)NC(=O)c2cccc(-c3cn(Cc4ccc(C(N)=O)cc4)nn3)c2)cc1 [III-15d] , thanks.
(A) >1.30

(Q) SI (selectivity index, ratio of CC50/EC50) lookup needed for COc1ccc(N(C)C(=O)[C@H](Cc2cc(F)cc(F)c2)NC(=O)c2cccc(-c3cn(CC(=O)Nc4ccccc4)nn3)c2)cc1 [II-10e] , thanks.
(A) >3.92

(Q) SI (selectivity index, ratio of CC50/EC50) lookup needed for COc1ccc(N(C)C(=O)[C@H](Cc2cc(F)cc(F)c2)NC(=O)c2cccc(-c3cn(Cc4ccc([N+](=O)[O-])cc4)nn3)c2)cc1 [II-10c] , thanks.
(A) >16.66

(Q) SI (selectivity index, ratio of CC50/EC50) lookup needed for COc1ccc(N(C)C(=O)[C@H](Cc2cc(F)cc(F)c2)NC(=O)c2cccc(-c3cn(Cc4ccc(C(N)=O)cc4)nn3)c2)cc1 [II-10d] , thanks.
(A) >1.37
